measurement target: human SGLT2 (Homo sapiens, UniProt P31639)
Sequence (P31639 1-672): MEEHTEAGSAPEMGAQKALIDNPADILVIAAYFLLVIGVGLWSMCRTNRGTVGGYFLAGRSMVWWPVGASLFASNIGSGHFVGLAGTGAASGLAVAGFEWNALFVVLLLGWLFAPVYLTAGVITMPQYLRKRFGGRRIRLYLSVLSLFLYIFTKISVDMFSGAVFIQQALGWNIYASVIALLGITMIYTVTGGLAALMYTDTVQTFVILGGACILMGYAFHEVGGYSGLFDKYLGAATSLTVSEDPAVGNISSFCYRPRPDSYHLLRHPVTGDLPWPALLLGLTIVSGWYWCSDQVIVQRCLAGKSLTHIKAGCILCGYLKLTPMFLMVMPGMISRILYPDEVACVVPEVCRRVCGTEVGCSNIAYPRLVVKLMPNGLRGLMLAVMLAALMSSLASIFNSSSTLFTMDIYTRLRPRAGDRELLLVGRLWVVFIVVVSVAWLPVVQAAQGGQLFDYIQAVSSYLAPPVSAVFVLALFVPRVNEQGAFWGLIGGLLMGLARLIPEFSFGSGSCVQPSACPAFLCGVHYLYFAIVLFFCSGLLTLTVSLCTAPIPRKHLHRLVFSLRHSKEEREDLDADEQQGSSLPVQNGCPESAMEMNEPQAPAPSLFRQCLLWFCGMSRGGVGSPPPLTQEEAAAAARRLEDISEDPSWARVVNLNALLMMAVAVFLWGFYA
protocol summary: Inhibitory activity against methyl-α-D-glucopyranoside uptake of human Na+-glucose cotransporter SGLT2
test conditions: CHO-K1 cells stably expressing human SGLT2; methyl-α-D-(U-14C)glucopyranoside uptake, 37° C. for 45 minutes; read-out: Ic50 value (inhibition of SGLT2)
pIC50: −log10 of the molar value.
observable: pIC50

>>> measured("CCc1ccc(Cc2cccc3c4c(sc23)C2(OCC4)O[C@H](CO)[C@@H](O)[C@H](O)[C@H]2O)cc1 (stereo in doubt)")
8.29
>>> measured("CCc1ccc(Cc2csc3cc4c(cc23)[C@]2(OC4)O[C@H](CO)[C@@H](O)[C@H](O)[C@H]2O)cc1")
8.41
>>> measured("CCc1ccc(Cn2ccc3cc4c(cc32)[C@]2(OC4)O[C@H](CO)[C@@H](O)[C@H](O)[C@H]2O)cc1")
8.70
